molecular target: HCV NS3-4A serine protease (full-length NS3-4A protein) (Hepatitis C virus genotype 1a (isolate 1) (HCV)); assay: HCV NS3-4A protease assay; details: strain HCV-1, fluorogenic peptide substrate, read-out: Protease assay Ex. 12 IC50
Sequence (P26664 1027-1657): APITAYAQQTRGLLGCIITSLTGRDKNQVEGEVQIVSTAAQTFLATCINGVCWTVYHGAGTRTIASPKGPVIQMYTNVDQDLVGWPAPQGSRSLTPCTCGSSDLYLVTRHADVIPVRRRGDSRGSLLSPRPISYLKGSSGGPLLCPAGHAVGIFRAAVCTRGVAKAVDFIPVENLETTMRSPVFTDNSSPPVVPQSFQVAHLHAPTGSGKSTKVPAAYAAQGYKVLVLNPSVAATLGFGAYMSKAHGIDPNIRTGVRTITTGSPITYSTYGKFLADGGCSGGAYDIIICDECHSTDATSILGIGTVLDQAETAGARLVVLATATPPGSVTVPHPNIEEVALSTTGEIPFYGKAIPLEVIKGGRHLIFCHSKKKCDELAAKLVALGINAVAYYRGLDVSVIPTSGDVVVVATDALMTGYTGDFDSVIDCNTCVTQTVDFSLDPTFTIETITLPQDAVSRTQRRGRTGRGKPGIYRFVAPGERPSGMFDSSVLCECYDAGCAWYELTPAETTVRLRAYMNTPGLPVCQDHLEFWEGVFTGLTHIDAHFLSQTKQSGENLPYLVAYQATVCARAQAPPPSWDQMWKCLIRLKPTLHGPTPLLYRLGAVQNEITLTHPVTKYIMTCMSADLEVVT
Sequence (P26664 1658-1711 partner): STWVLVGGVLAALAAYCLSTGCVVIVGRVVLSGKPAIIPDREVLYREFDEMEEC
property: IC50 (nM)
Only the number, expressed in nM, is required.

Q) Identify IC50 associated with the molecule [2H]C([2H])([2H])C([2H])([2H])N(C([2H])([2H])C([2H])([2H])[2H])S(=O)(=O)NC(=O)[C@@]1(NC(=O)[C@@H]2C[C@@]3(CN2C(=O)[C@@H](NC(=O)[C@@H](NC(=O)[C@@H]2CCCCN2C(C)C)C2CCCCC2)C(C)(C)C)C(C)(C)C32CCC2)C[C@H]1C=C [Compound 149]
A) 1.5

Q) Give a short answer stating reported IC50 for C=C[C@@H]1C[C@]1(NC(=O)[C@@H]1C[C@@]2(CN1C(=O)[C@@H](NC(=O)[C@@H](NC(=O)CN1CCc3ccccc3C1)C1CCCCC1)C(C)(C)C)C(C)(C)C21CCC1)C(=O)NS(=O)(=O)N1CCCC1 [Compound 177] .
A) 25
